This collection of values is drawn from PubChem BioAssay (NCI).

System: NCI-H226 lung
Test: NCI tumour cell line growth inhibition, 48 h
OBSERVABLE: TGI

Illustrative cases are given below, each with its answer.
> print(dat)
                                   compound  test.result
1           CNC(=O)c1cncc(/C=C/c2ccccc2C)c1      > 25 µM
2  NC(=O)C(=O)N/N=C1/c2ccccc2CC1C1(O)C(=O)Nc2c(Cl)cc(Cl)cc21 (stereo not drawn)     > 100 µM

What value of TGI has been reported for the following compound? Cc1ccc2c(ccc3c[n+]4c5ccccc5ccc4n32)c1
10.4 µM

====

System: 786-0 renal
Experiment: NCI tumour cell line growth inhibition, 48 h
This listing pairs compounds with measured TGI.

Illustrative cases are given below, each with its answer.
> print(dat)
                                   compound  observable  test.result
1  CCN(CC)S(=O)(=O)c1ccc(OC)c(Nc2ncc(-c3ccccc3)o2)c1         TGI      > 25 µM
2  CCOC1CC(=O)c2c(Br)sc(Br)c21 (stereo not given)         TGI      94.7 µM
3  O=C1C(c2c(O)[nH]c3ccc(S(=O)(=O)O)cc23)=Nc2ccccc21         TGI     > 100 µM

What value of TGI has been reported for the following compound? NC(=S)N/N=C(/CC(=O)c1ccccc1)C(=O)Nc1ccc(Cl)c(Cl)c1
> 100 µM

What value of TGI has been reported for the following compound? COc1ccc(N2C(=O)c3c4c(c5c([nH]c6ncccc65)c3C2=O)CCC(C(C)(C)C)C4)cc1 (stereo not given)
> 100 µM

====

This listing pairs compounds with measured TGI.
Tested on: MALME-3M melanoma
Experiment: NCI tumour cell line growth inhibition, 48 h

Illustrative cases are given below, each with its answer.
> print(dat)
                                   compound  test.result
1  COP(=O)(O)/C=C/C(NC(=O)C(Cl)(Cl)Cl)c1ccccc1 (stereo not given)     > 100 µM
2  O=C([O-])c1ccccc1Nc1ccccn1.O=C([O-])c1ccccc1Nc1ccccn1.[Ni+2]     > 100 µM
3  CCOP(=O)(OCC)C1C(CO)OC(n2ccc(=O)[nH]c2=O)C1O (stereo not given)     > 100 µM
4  COc1c(CCC[P+](c2ccccc2)(c2ccccc2)c2ccccc2)cc2c(c1OC)OCO2      10.2 µM
5  CC1CCCCc2nc3c(c(=O)n21)CCCC3 (stereo not given)     > 100 µM

What value of TGI has been reported for the following compound? O=C(Nc1cccc2cnccc12)c1cc2c(cc1Cl)Sc1nccn1S2(=O)=O
38.7 µM

What value of TGI has been reported for the following compound? COC(=O)NN(C(=O)OC)c1c(-c2ccccc2)nc(SC)n1N
> 100 µM

What value of TGI has been reported for the following compound? CC(C)(C)C[C@H]1NC(C(=O)NCC[C@H](O)CO)[C@H](c2cccc(Cl)c2)[C@@]12C(=O)Nc1cc(Cl)c(F)cc12 (stereo not given in full)
11.8 µM

What value of TGI has been reported for the following compound? COc1cccc(NC(=O)CC(=O)N2N=C(N(CCC#N)c3ccc(Cl)cc3)CC2c2ccccc2)c1 (stereo not given)
> 100 µM

What value of TGI has been reported for the following compound? CN(C(=O)C12C3C4C5C3C1(C(=O)O)C5C42)C(C)(C)C (stereo not given)
> 100 µM

====

Tested on: DU-145 prostate
Assay: NCI tumour cell line growth inhibition, 48 h; in the data active = GI50 below about 0.43 µM; inactive = the rest
Thanks in advance; please answer with one of these: 1 (active), -1 (inactive)

The following compounds have reported results that may help.
COMPOUND	CLASS
N#Cc1cnc2cc(OC[C@H](O)CO)c(NC(=O)CC3CSSC3)cc2c1Nc1ccc(OCc2cccc(F)c2)c(Cl)c1	-1
CN1CCN(CCc2cccc(C(=O)c3cnn(-c4ccc(F)cc4)c3N)c2)CC1	-1
Cc1[c-]onc1C.Cc1[c-]onc1C.[Ag].[Ag].[NH-]S(=O)(=O)c1ccc(N=Nc2cc(N=Nc3ccc(S([NH-])(=O)=O)cc3)c3c(NC(=O)C(Cl)Cl)cccc3c2OC(=O)C(Cl)Cl)cc1	-1
CNC(=O)c1cncc(/C=C/c2ccccc2C)c1	-1
C[C@H](Nc1ncnc2nc[nH]c12)c1cc2cccc(Cl)c2c(=O)n1-c1ccccc1	-1
COc1cccc(/C=C/C(=O)c2cccc(Nc3nc(Nc4ccccc4)nc(Nc4ccccc4)n3)c2)c1	-1
CCCCCn1c(=N)n(CC(O)COc2cccc(C)c2)c2ccccc21 (stereo not drawn)	-1

As a next step, examine the compound that follows.
Any idea what this test logged for COC(=O)[C@@H](C)C[C@H](Cc1ccccc1)NC(=O)c1nc([C@@H](C[C@H](C(C)C)N(C)C(=O)[C@@H](NC(=O)[C@H]2CCCCN2C)C(C)C)OC(C)=O)sc1C ?
1

====

Tested on: TK-10 renal
Assay: NCI tumour cell line growth inhibition, 48 h
OBSERVABLE: GI50

COMPOUND	GI50
Oc1ccc(-c2nnc3sc(-c4ccc(F)cc4)nn23)cc1	69.8 µM
Cc1[c-]onc1C.Cc1[c-]onc1C.[Ag].[Ag].[NH-]S(=O)(=O)c1ccc(N=Nc2cc(N=Nc3ccc(S([NH-])(=O)=O)cc3)c3c(NC(=O)C(Cl)Cl)cccc3c2OC(=O)C(Cl)Cl)cc1	10 µM
CC(C)(C)C[C@H]1NC(C(=O)NCC[C@H](O)CO)[C@H](c2cccc(Cl)c2)[C@@]12C(=O)Nc1cc(Cl)c(F)cc12 (some centres undefined)	19.2 µM

In the following, a different compound is considered.
What value of GI50 has been reported for the following compound? O=CNc1c(Cl)cc2c(c1Cl)Cc1cc([N+](=O)[O-])ccc1-2
5.63 µM

====

Test system: UO-31 renal
Assay: NCI tumour cell line growth inhibition, 48 h
OBSERVABLE: TGI (µM)
Supply the numeric figure in µM, leaving out any unit text.

Illustrative cases are given below, each with its answer.
> print(dat)
                                   molecule  test.result
1               CC(C)(C)C#CC1=C(Br)C(=O)OC1         3.22
2                   CCCCCCCCCCCCOC(=S)NCCCC         20.1
3  O=CNc1c(Cl)cc2c(c1Cl)Cc1cc([N+](=O)[O-])ccc1-2         29.3
4             Cc1cc(-c2nc3c(O)cccc3s2)ccc1N         36.6
5  N#CC(C(=O)/C(=N/NC(=O)c1ccccc1O)C(C#N)c1ccc(Cl)cc1)c1ccc(Cl)cc1 (stereo unspecified)         30.9
6  CCOC1CC(=O)c2c(Br)sc(Br)c21 (stereo unspecified)         33.5
7  COc1ccc2c(c1)O/C(=C\c1cccc(OCC(=O)Nc3nc4c(s3)CCCC4)c1)C2=O         3.15

Which measured TGI belongs to COc1ccc(CC(CO)NC(=O)OCc2ccccc2)cc1Oc1ccc(CC(CO)NC(=O)OCc2ccccc2)cc1 (stereo unspecified) , tested on UO-31 renal?
31.4

====

System: NCI-H226 lung
Test: NCI tumour cell line growth inhibition, 48 h
OBSERVABLE: TGI

Illustrative cases are given below, each with its answer.
COMPOUND	TGI
O=C1c2ccccc2CN1c1ccc(O)cc1	> 100 µM
c1ccc2c(c1)[nH]c1nc3cc(-c4ccc5nc6c(nc5c4)[nH]c4ccccc46)ccc3nc12	> 100 µM
COC1(C(=O)N[C@@H](C)c2ccc(-n3cc(F)cn3)nc2)CCC(c2nc(C)cc(Nc3cc(C)[nH]n3)n2)CC1 (stereo partly specified)	11.7 µM
C=C(C)CCC(=O)[C@](C)(O)[C@H]1[C@H](O)C[C@@]2(C)[C@@H]3CCc4c(cc(OC5OC(CO)C(O)C(O)C5O)c(O)c4C)C3(C)C(=O)C[C@]12C (stereo partly specified)	> 100 µM
COC(=O)c1ccccc1/C=C1/Cc2ccccc2C1=O	> 100 µM
O=c1c2ncn(C3CC(O)C(CO)O3)c2nnn1Cc1ccccc1[N+](=O)[O-] (stereo unspecified)	> 100 µM
COc1cc2c(cc1OCCCCOc1cc(-c3ccc(F)cc3)nc(C)n1)N=C[C@@H]1CCCN1C2=O	4.71 µM
CC(C)(C)C1=Cc2cc3cc(C(C)(C)C)[nH]c(=O)c3cc2S(=O)(=O)N1	47.7 µM

Which measured TGI belongs to Cc1ccc(/C=C2\CN(C(=O)OC(C)(C)C)C/C(=C\c3ccc(C)cc3)C2=O)cc1 , tested on NCI-H226 lung?
> 100 µM

Which measured TGI belongs to CN(CCCN)CCCNc1nc2ccccc2c2[nH]c3ccccc3c12 , tested on NCI-H226 lung?
0.997 µM

Which measured TGI belongs to C=C(Cl)/C(=C\Cl)CCC(Br)C(C)C (stereo unspecified) , tested on NCI-H226 lung?
> 100 µM

Which measured TGI belongs to COC(=O)[C@@H](C)C[C@H](Cc1ccccc1)NC(=O)c1nc([C@@H](C[C@H](C(C)C)N(C)C(=O)[C@@H](NC(=O)[C@H]2CCCCN2C)C(C)C)OC(C)=O)sc1C , tested on NCI-H226 lung?
> 16.7 µM

Which measured TGI belongs to CC(=O)NNc1nc(C)c(C(=O)NNC(=O)C(=O)Nc2ccccc2C#N)s1 , tested on NCI-H226 lung?
> 100 µM

Which measured TGI belongs to CCOC(=O)c1[nH]cc(C)c1-c1ccn(-c2ccccc2)c1 , tested on NCI-H226 lung?
> 100 µM

Which measured TGI belongs to CNC(=O)OCc1nc(SC2CCCCO2)n(C)c1COC(=O)NC (stereo unspecified) , tested on NCI-H226 lung?
> 100 µM

Which measured TGI belongs to COc1c2c(c3c(c1CCC(=O)O)OC(C)(C)C=C3)OC(C)(C)C=C2 , tested on NCI-H226 lung?
> 100 µM

Which measured TGI belongs to O=C(c1ccc(F)cc1)c1cccc(C(=O)c2ccc(F)cc2)n1 , tested on NCI-H226 lung?
> 78 µM

Which measured TGI belongs to CSCCC(NCc1c(O)ccc2c(-c3ccccc3)cc(=O)oc12)C(=O)O (stereo unspecified) , tested on NCI-H226 lung?
> 100 µM
